TEST: Cytotoxicity against human T98 cells expressing p53 mutant after 48 hrs by MTT assay
Format: functional, cell-based
CONDITION LABEL: T98, 48 h
ENDPOINT LABEL: IC50 (nM)
Kindly answer with a numeric value in nM, unit omitted.

Q: Fill blank: measured IC50 of the compound C/C(=N\NC(=S)Nc1ccccc1)c1ccccn1 is ____.
Result: 6.8

Q: Follow-up entry: C/C(=N\NC(=S)Nc1ccccc1Cl)c1ccccn1
Result: 1.1

Q: Follow-up entry: C/C(=N\NC(=S)Nc1cccc(C)c1)c1ccccn1
Result: 50

Q: Follow-up entry: C/C(=N\NC(=S)Nc1ccc(Cl)cc1)c1ccccn1
Result: 5.9

Q: Follow-up entry: C/C(=N\NC(=S)Nc1ccc(C)cc1)c1ccccn1
Result: 37

Q: Follow-up entry: C/C(=N\NC(=S)Nc1cccc(Cl)c1)c1ccccn1
Result: 1

Q: Follow-up entry: C/C(=N\NC(=S)Nc1ccccc1C)c1ccccn1
Result: 34
